Measured values drawn from paper PMC10244618 for this set.

B1: NF2 (merlin) isoform 7, human, full length (507 aa, lacks exons 2-3 = isoform-1 residues 39-121; exon-16 C-terminus), P35240-4 (parent)
chain: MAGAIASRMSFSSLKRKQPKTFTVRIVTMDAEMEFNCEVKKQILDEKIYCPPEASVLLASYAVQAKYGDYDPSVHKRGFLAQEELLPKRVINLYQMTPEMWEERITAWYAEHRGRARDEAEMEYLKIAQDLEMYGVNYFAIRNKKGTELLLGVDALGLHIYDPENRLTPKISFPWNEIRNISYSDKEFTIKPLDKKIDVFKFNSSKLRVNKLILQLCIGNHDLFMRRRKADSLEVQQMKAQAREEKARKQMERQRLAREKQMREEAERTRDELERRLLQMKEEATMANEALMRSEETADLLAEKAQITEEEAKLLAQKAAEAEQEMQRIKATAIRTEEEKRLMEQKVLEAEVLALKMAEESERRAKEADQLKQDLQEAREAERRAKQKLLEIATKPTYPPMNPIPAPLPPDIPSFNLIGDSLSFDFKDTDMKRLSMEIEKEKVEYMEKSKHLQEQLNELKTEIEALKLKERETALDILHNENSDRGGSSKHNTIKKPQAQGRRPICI

# Variants of: B1
# test-description: reverse yeast two-hybrid deep mutational scan (rY2H-seq): NF2 isoform 7 mutant library as bait mated with wild-type prey strains; selection on medium lacking adenine for non-interacting pairs; NextSeq paired-end sequencing; enrichment vs …
# condition-summary: with KDM1A (lysine-specific histone demethylase 1A; the table's label AOF2 is a gene synonym of KDM1A), O60341; yeast diploids after mating (RBait_S3 x RPrey_S3), 30 °C, selection for reporter genes on NB agar; human ABL2 co-expressed as the kinase-dead K35M mutant …; HIGHER = WEAKER BINDING (the opposite of display enrichments): higher = stronger loss of interaction: reverse Y2H selects yeast in which bait and prey do NOT interact (growth without adenine), so a …; hits-only table; scale: rY2H score; numbering: uniprot, sequence starts at 1
measured-property: enrichment

changes: C217Y
value-observed: 2.94
//
changes: S12L
value-observed: 5.88
//
changes: D484K
value-observed: 4.88
//
changes: N457T
value-observed: 2.31
//
changes: M292S
value-observed: 1.74
//
changes: E472A
value-observed: 3.64

Problem: Report enrichment for R25L please.
Result: 4.09

Problem: Please give the result for N492E too.
Result: 1.69
